Biological target: Major prion protein (Mus musculus) (UniProt P04925)
Sequence (P04925 whole entry): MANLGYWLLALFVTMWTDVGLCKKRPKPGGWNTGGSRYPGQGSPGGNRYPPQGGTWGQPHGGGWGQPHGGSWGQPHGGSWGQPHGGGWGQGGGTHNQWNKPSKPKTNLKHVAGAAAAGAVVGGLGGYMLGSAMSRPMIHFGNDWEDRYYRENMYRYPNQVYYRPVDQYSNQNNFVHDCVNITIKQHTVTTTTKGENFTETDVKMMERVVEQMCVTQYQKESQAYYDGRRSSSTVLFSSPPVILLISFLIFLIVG
Assay: Binding affinity to mouse PrPC at 40 uM
parameter: RUmax (%)
Express the result in % but write the number alone.

Request: Form: Entry = `COc1cccc(-c2c(C#N)c(N)nc(Sc3ccccc3)c2C#N)c1` | System = Major prion protein (Mus musculus) (UniProt P04925) | RUmax = ____
Response: 0

Request: Form: Entry = `N#Cc1c(N)nc(Sc2cccc(Cl)c2)c(C#N)c1-c1ccc(Cl)cc1` | System = Major prion protein (Mus musculus) (UniProt P04925) | RUmax = ____
Response: 52.3

Request: Form: Entry = `CC(=O)c1ccc(-c2c(C#N)c(N)nc(Sc3ccc(O)cc3)c2C#N)cc1` | System = Major prion protein (Mus musculus) (UniProt P04925) | RUmax = ____
Response: 0

Request: Form: Entry = `N#Cc1c(N)nc(Sc2ccccc2F)c(C#N)c1-c1cccc(O)c1` | System = Major prion protein (Mus musculus) (UniProt P04925) | RUmax = ____
Response: 18.8

Request: Form: Entry = `COC(=O)c1ccc(Sc2nc(N)c(C#N)c(-c3ccc(O)cc3)c2C#N)cc1` | System = Major prion protein (Mus musculus) (UniProt P04925) | RUmax = ____
Response: 0

Request: Form: Entry = `COC(=O)c1ccc(-c2c(C#N)c(N)nc(Sc3cccc(C(=O)OC)c3)c2C#N)cc1` | System = Major prion protein (Mus musculus) (UniProt P04925) | RUmax = ____
Response: 0

Request: Form: Entry = `N#Cc1c(N)nc(Sc2cccc(O)c2)c(C#N)c1-c1ccccc1` | System = Major prion protein (Mus musculus) (UniProt P04925) | RUmax = ____
Response: 60.6

Request: Form: Entry = `COC(=O)c1ccc(Sc2nc(N)c(C#N)c(-c3ccc(C(=O)OC)cc3)c2C#N)cc1` | System = Major prion protein (Mus musculus) (UniProt P04925) | RUmax = ____
Response: 0

Request: Form: Entry = `COC(=O)c1ccc(-c2c(C#N)c(N)nc(Sc3ccc(O)cc3)c2C#N)cc1` | System = Major prion protein (Mus musculus) (UniProt P04925) | RUmax = ____
Response: 0

Request: Form: Entry = `CS(=O)(=O)c1ccc(-c2c(C#N)c(N)nc(Sc3ccc(O)cc3)c2C#N)cc1` | System = Major prion protein (Mus musculus) (UniProt P04925) | RUmax = ____
Response: 0

Request: Form: Entry = `N#Cc1c(N)nc(Sc2ccc(O)cc2)c(C#N)c1-c1ccc(O)c(Cl)c1` | System = Major prion protein (Mus musculus) (UniProt P04925) | RUmax = ____
Response: 64.6

Request: Form: Entry = `COC(=O)c1ccc(-c2c(C#N)c(N)nc(Sc3ccc(NC(C)=O)cc3)c2C#N)cc1` | System = Major prion protein (Mus musculus) (UniProt P04925) | RUmax = ____
Response: 13.3

Request: Form: Entry = `COc1cccc(-c2c(C#N)c(N)nc(Sc3cccc(Cl)c3)c2C#N)c1` | System = Major prion protein (Mus musculus) (UniProt P04925) | RUmax = ____
Response: 0

Request: Form: Entry = `CC(=O)Nc1ccc(Sc2nc(N)c(C#N)c(-c3cc(F)cc(F)c3)c2C#N)cc1` | System = Major prion protein (Mus musculus) (UniProt P04925) | RUmax = ____
Response: 0

Request: Form: Entry = `COC(=O)c1ccc(Sc2nc(N)c(C#N)c(-c3ccccc3)c2C#N)cc1` | System = Major prion protein (Mus musculus) (UniProt P04925) | RUmax = ____
Response: 0

Request: Form: Entry = `N#Cc1c(N)nc(Sc2ccc(O)cc2)c(C#N)c1-c1ccc(O)c(F)c1` | System = Major prion protein (Mus musculus) (UniProt P04925) | RUmax = ____
Response: 53.8

Request: Form: Entry = `COC(=O)c1ccc(-c2c(C#N)c(N)nc(Sc3ccc(C(=O)O)cc3)c2C#N)cc1` | System = Major prion protein (Mus musculus) (UniProt P04925) | RUmax = ____
Response: 8.5

Request: Form: Entry = `COc1ccc(-c2c(C#N)c(N)nc(Sc3cccc(Cl)c3)c2C#N)cc1` | System = Major prion protein (Mus musculus) (UniProt P04925) | RUmax = ____
Response: 0

Request: Form: Entry = `N#Cc1c(N)nc(Sc2ccc(Cl)cc2)c(C#N)c1-c1ccccc1` | System = Major prion protein (Mus musculus) (UniProt P04925) | RUmax = ____
Response: 0

Request: Form: Entry = `COC(=O)c1cccc(Sc2nc(N)c(C#N)c(-c3ccccc3)c2C#N)c1` | System = Major prion protein (Mus musculus) (UniProt P04925) | RUmax = ____
Response: 33.2

Request: Form: Entry = `CC(=O)Nc1ccc(Sc2nc(N)c(C#N)c(-c3c(F)cccc3F)c2C#N)cc1` | System = Major prion protein (Mus musculus) (UniProt P04925) | RUmax = ____
Response: 40.1
